As shown below, each of these compounds has a reported melting point value.

>  <Compound>
CCOC(=O)c1cc([N+](=O)[O-])cc(Br)c1O

>  <melting point>
108 °C

$$$$
>  <Compound>
NC(=O)CN1C(=O)[C@@H](NC(=O)[C@@H]2CCC(=O)C2)[C@H](c2ccccc2)Sc2ccccc21

>  <melting point>
135 to 150 °C

$$$$
>  <Compound>
CC(=O)Nc1ccc(S(=O)(=O)Nn2cc(-c3ccccc3)c3ccccc32)cc1

>  <melting point>
190 to 193 °C

$$$$
>  <Compound>
CC(=O)OCC1OC(n2c(Cl)nc3c(Br)c(Br)ccc32)C(OC(C)=O)C1OC(C)=O (stereo not given)

>  <melting point>
129 to 130 °C

$$$$
>  <Compound>
Cc1cc(CCCCc2cc(C)c(O)c(C(C)(C)C)c2)cc(C(C)(C)C)c1O

>  <melting point>
106 to 107 °C

$$$$
>  <Compound>
Cc1c(N)nc(Cl)nc1Cl

>  <melting point>
193 to 194 °C

$$$$
>  <Compound>
O=C(C(=O)c1cccnc1)c1ccccc1

>  <melting point>
56 to 57 °C

$$$$
>  <Compound>
C=CC(=O)NCc1ccc(CCCl)cc1

>  <melting point>
145 to 147 °C

$$$$
>  <Compound>
O=C(NC1CC(=O)c2ccccc2C1)OCc1ccccc1 (stereo not given)

>  <melting point>
79.5 to 81.5 °C

$$$$
>  <Compound>
CCN1CC(=O)N(C)c2cc(Nc3ncc(Cl)c(Nc4ccc(OC)cc4-n4cccn4)n3)c(OC)cc2C1

>  <melting point>
105 to 107 °C

$$$$

###

>  <Substance smiles>
O=C(O)Cn1c(=O)[nH]c(=O)c2ccc(Cl)cc21

>  <Unit name>
°C

>  <melting point>
306

$$$$
>  <Substance smiles>
O=C1c2ccc(OCCCO)cc2C(=O)c2ccc(OCCCO)cc21

>  <Unit name>
°C

>  <melting point>
190

$$$$
>  <Substance smiles>
C1=CC(c2ccccc2)(c2ccccc2)CCS1

>  <Unit name>
°C

>  <melting point>
78

$$$$
>  <Substance smiles>
CCOc1c(C=NO)c(=O)n(C)c(=O)n1C

>  <Unit name>
°C

>  <melting point>
115

$$$$

###

Reported endpoint: melting point (°C)

>  <Substance smiles>
Cc1cccc(-c2csc(N3C(=O)c4ccccc4C3=O)c2C(=O)O)c1

>  <Reported endpoint>
melting point

>  <Test result>
195

$$$$
>  <Substance smiles>
CC(=O)OCc1csc(-c2nc3n(c2-c2ccncc2)CCC3)c1

>  <Reported endpoint>
melting point

>  <Test result>
126

$$$$
>  <Substance smiles>
Cc1ccnc(N2CCN(CCc3c(-c4ccc(O)cc4)n4c5c(cccc35)CCC4)CC2)c1

>  <Reported endpoint>
melting point

>  <Test result>
220

$$$$

###

As shown below, each of these molecules has a reported melting point value.

>  <Molecule>
Cc1cc(C#N)cc(C(=O)Nc2ccc(F)c(C)c2)n1

>  <melting point>
177 °C

$$$$
>  <Molecule>
COc1ccc(OC)c(-c2cn(N=Cc3ccccc3)c(N)n2)c1

>  <melting point>
180 to 181 °C

$$$$
>  <Molecule>
CCOC(=O)c1cnc2ccc(CC)nc2c1Cl

>  <melting point>
94 to 96 °C

$$$$
>  <Molecule>
CCOC(=O)c1cn(-c2ccc(F)c(OC)c2)c2c(Cl)c(F)c(F)cc2c1=O

>  <melting point>
245 to 246 °C

$$$$
>  <Molecule>
Cc1onc(NS(=O)(=O)c2cccc3ccccc23)c1Br

>  <melting point>
167 to 170 °C

$$$$
>  <Molecule>
CCOC(=O)CC1(c2ccc(OC)c(OC)c2)CNC(=O)C1 (stereo unspecified)

>  <melting point>
60 to 62 °C

$$$$
>  <Molecule>
Cc1nc(C)c(Cl)c(NCc2nccc(SCCCSCCn3c([N+](=O)[O-])cnc3C)c2C)n1

>  <melting point>
145 to 147 °C

$$$$
>  <Molecule>
COc1ccc(C2=NNC(=O)[C@H]3CCCC[C@@H]23)cc1OC1CCCC1 (relative stereo)

>  <melting point>
175 to 176 °C

$$$$
>  <Molecule>
N#CCCn1cnc2ccccc21

>  <melting point>
108 to 110 °C

$$$$
>  <Molecule>
CC(=O)C1(OC(=O)CCl)CCC2C3CCC4=CC(=O)CCC4(C)C3CCC21C (stereo unspecified)

>  <melting point>
134 to 135 °C

$$$$
>  <Molecule>
N#Cc1ccc(F)cc1-c1ccco1

>  <melting point>
55 to 56 °C

$$$$
>  <Molecule>
Cc1c(NCCNCC(O)COc2ccccc2)n(C)c(=O)n(C)c1=O (stereo unspecified)

>  <melting point>
81 to 82 °C

$$$$
>  <Molecule>
OCCn1cc(-c2ccc3ncn(Cc4ccc5ncccc5c4)c3n2)cn1

>  <melting point>
160 to 163 °C

$$$$
>  <Molecule>
Cn1cc(CO)c(=O)c2ccc(C(F)(F)F)cc21

>  <melting point>
172 to 175 °C

$$$$
>  <Molecule>
COCCNC(=O)COC1c2ccccc2C(=O)N1c1ccc2ccc(OC)nc2n1 (stereo unspecified)

>  <melting point>
172 °C

$$$$
>  <Molecule>
OCc1ccc(OCc2cccc(Cl)c2)cn1

>  <melting point>
78 to 80 °C

$$$$
>  <Molecule>
CS(=O)(=O)NC1CCCOc2ccccc21 (stereo unspecified)

>  <melting point>
105 to 106 °C

$$$$
>  <Molecule>
Cc1ccc2c3c(c(=O)oc2c1)CN(Cc1ccc(Cl)cc1)CC3

>  <melting point>
147 to 149 °C

$$$$
>  <Molecule>
Clc1cc(CBr)c2noc(-c3ccc(Br)cc3)c2c1

>  <melting point>
147 to 150 °C

$$$$
>  <Molecule>
N#Cc1cnn(-c2nc(F)c(C(F)(F)F)cc2Cl)c1N

>  <melting point>
156 to 159 °C

$$$$
>  <Molecule>
CCOCc1nc2c(N)nc3ccccc3c2n1CCOCCNS(=O)(=O)C(C)C

>  <melting point>
139 to 142 °C

$$$$
>  <Molecule>
CC12CC[C@](C(=O)N3CCC4(C=Cc5ccccc54)CC3)(OC1=O)C2(C)C

>  <melting point>
215 to 216 °C

$$$$
>  <Molecule>
O=C(CC1CC1)N[C@H]1CC[C@H](CCN2CCC(c3cccc4c3CCO4)CC2)CC1

>  <melting point>
189 °C

$$$$
>  <Molecule>
CCCCC1(Cc2c(F)cccc2Cl)NC=C(C=O)N1 (stereo unspecified)

>  <melting point>
88 to 90 °C

$$$$
>  <Molecule>
COc1cc2cc3ncc(C#N)c(Cl)c3cc2cc1OC

>  <melting point>
> 265 °C

$$$$
>  <Molecule>
CCC(=O)Nc1ccc(-c2ccncc2)cc1

>  <melting point>
179 to 181 °C

$$$$
>  <Molecule>
COCc1c(C(=O)c2ccccc2)ncc2[nH]c3ccc(OCc4ccccc4)cc3c12

>  <melting point>
165 °C

$$$$
>  <Molecule>
N#CCCCCCCCCNS(=O)(=O)c1cccc(Cl)c1

>  <melting point>
42 to 43 °C

$$$$
>  <Molecule>
COc1ccc(CN(C)CCOc2ccc(NC(=O)c3cccc4c(=O)c5cccc(OC)c5[nH]c34)c(C)c2)cc1OC

>  <melting point>
178 to 179 °C

$$$$
>  <Molecule>
CC(C)c1ccc(C(=O)C2=C(O)C(=O)N(c3cccn(C)c3=O)C2c2ccc(OC(F)(F)F)cc2)cc1 (stereo unspecified)

>  <melting point>
207 °C

$$$$
>  <Molecule>
CCS(=O)(=O)CCC(=O)NNC(=O)N1Cc2cc(OC)ccc2Oc2ccc(Cl)cc21

>  <melting point>
173 to 175 °C

$$$$
>  <Molecule>
O[C@H]1CC[C@H](N(Cc2ccccc2)Cc2ccccc2)CC1

>  <melting point>
97 to 99 °C

$$$$
>  <Molecule>
CCc1nc(Cl)c(C(N)=O)n1Cc1ccc2oc(-c3ccccc3NS(=O)(=O)C(F)(F)F)c(Br)c2c1

>  <melting point>
68 to 70 °C

$$$$
>  <Molecule>
CCOC(=O)c1c(Cl)c2cc(F)ccc2n(Cc2ccccc2)c1=O

>  <melting point>
118 °C

$$$$
>  <Molecule>
CN1CCC2(C)c3cc(OC(=O)N4CCc5ccccc5C4)ccc3N(C)C12 (stereo unspecified)

>  <melting point>
118 to 119 °C

$$$$
>  <Molecule>
CCOCc1cc2c(=O)c(C(=O)NCc3ccc(Cl)cc3)cn(C)c2o1

>  <melting point>
211 to 212 °C

$$$$
>  <Molecule>
CCO[C@@H](Cc1ccc(O)cc1)C(=O)O

>  <melting point>
105 °C

$$$$
>  <Molecule>
CCOC(=O)CC12CC1CCCC2=O (stereo unspecified)

>  <melting point>
154 to 156 °C

$$$$
>  <Molecule>
CC(C)(C)c1cc(N2CCN(C(=O)c3ccc(N)cc3)C2=O)cc(C(C)(C)C)c1O

>  <melting point>
> 260 °C

$$$$
>  <Molecule>
O=[N+]([O-])c1cc(-c2nsc(C(F)(F)F)c2Cl)c(Cl)cc1Cl

>  <melting point>
104 to 106 °C

$$$$
>  <Molecule>
CC(C)(C)c1ncn(Sc2ncc([N+](=O)[O-])s2)n1

>  <melting point>
219 to 221 °C

$$$$
